Sourced from patent US20200140562A1

- system name: T1, human OX40 on cells (CHO-hOX40, 293HEK-hOX40, Jurkat-hOX40, activated primary CD4+ T cells) (human, UniProt P43489 29-277)
- T1 construct: whole, on cells; The cell type is told in each assay; also called CHO-OX40
- T1 sequence (looked up): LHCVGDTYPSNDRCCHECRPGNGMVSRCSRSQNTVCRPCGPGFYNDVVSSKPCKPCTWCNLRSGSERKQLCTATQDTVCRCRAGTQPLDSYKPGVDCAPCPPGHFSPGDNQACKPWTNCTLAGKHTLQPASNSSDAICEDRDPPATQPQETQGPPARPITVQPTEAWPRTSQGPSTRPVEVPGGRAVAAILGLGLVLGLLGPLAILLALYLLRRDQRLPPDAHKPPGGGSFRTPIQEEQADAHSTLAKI
- experiment description: flow cytometry, 293HEK-hOX40, 40 nM
Form field: MFI (one value per entry).

[
  {
    "binder": "IgG1 control (antibody, V domains shown, Negative control; The printed entries seem to begin with a leader peptide) VH: EVRLLESGGGLVQPGGSLRLSCAASGFTFSNYAMGWVRQAPGKGLEWVSAISGSGGSTYYADSVKGRFTTSRDDSKNALYLQMNSLRAEDTAVYYCARGGPGWYAADVWGQGTTVTVSS VL: DIQMTQSPSSLSASVGDRVTITCRASQSISSYLNWYQQKPGKAPKLLIYAASSLQSGVPSRFSGSGSGTDFTLTISSLQPEDFATYYCQQADLPAFAFGGGTKVEIKR",
    "MFI [MFI]": 25200
  },
  {
    "binder": "ADI-20048, IgG1 format (antibody, V domains shown, Made in yeast) VH: QVQLQESGPGLVKPSETLSLTCTVSGGSISSYYWSWIRQPPGKGLEWIGYIYSSGSTNYNPSLKSRVTISVDTSKNQFSLKLSSVTAADTAVYYCARDAPGGSSYQDYYMDVWGKGTTVTVSS VL: EIVLTQSPATLSLSPGERATLSCRASQSVSSYLAWFQQKPGQAPRLLIYDASNRATGIPARFSGSGSGTDFTLTISSLEPEDFAVYYCQQAFSMPPTFGGGTKVEIKR",
    "MFI [MFI]": "1.85e+06"
  },
  {
    "binder": "ADI-20113, IgG1 format (antibody, V domains shown, Made in yeast) VH: QVQLVESGGGVVQPGRSLRLSCAASGFTFSSYGMHWVRQAPGKGLEWVAVISYDGSNKYYADSVKGRFTISRDNSKNTLYLQMNSLRAEDTAVYYCARGRPWYSETGTSAFDIWGQGTMVTVSS VL: EIVMTQSPATLSVSPGERATLSCRASQSVSSNLAWYQQKPGQAPRLLIYSASTRATGIPARFSGSGSGTEFTLTISSLQSEDFAVYYCQQHNVYPPYTFGGGTKVEIKR",
    "MFI [MFI]": "2.18e+06"
  }
]
